Target: T1, ZFP SBS#971 (synthetic)
T1 chain: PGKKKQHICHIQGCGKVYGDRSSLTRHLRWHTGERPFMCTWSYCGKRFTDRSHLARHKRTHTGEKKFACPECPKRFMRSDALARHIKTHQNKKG
Assay: EMSA
Settings: tags: MBP fusion
metric_name: pKd
pKd is defined as minus the log10 of a concentration measured in mol/L.

What does the record list as pKd for GTGGGCGCC (dsDNA) DNA 1: GTGGGCGCC DNA 2: GGCGCCCAC ? 9.84
